- TARGET: SERT (Rattus norvegicus, UniProt P31652)
- Sequence (P31652 whole entry): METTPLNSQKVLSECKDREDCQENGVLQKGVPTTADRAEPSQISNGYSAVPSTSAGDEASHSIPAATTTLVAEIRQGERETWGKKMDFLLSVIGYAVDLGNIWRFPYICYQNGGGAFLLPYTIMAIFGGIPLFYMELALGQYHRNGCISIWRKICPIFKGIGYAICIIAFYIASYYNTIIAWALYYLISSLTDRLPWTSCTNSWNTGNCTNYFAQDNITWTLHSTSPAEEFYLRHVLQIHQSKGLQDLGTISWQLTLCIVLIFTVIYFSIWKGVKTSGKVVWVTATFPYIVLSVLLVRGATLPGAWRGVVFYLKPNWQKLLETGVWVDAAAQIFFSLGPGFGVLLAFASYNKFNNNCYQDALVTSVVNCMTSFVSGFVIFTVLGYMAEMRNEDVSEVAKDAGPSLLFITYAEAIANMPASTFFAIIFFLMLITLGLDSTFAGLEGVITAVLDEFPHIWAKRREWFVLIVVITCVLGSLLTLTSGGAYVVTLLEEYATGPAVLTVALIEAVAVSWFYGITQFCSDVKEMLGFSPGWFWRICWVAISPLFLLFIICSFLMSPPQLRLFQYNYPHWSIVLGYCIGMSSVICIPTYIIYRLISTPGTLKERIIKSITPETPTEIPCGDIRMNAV
READOUT: pKi
Give bare numbers, as −log10 of the molar value.

input: Returns the measured pKi for the input compound. Input: CNCCCC1(c2ccc(F)cc2)OCc2cc(C#N)ccc21 (stereo not shown)
output: 8.30

----------
# hSERT WT (Homo sapiens): [3H] S-1 dissoc. t½ (min) at 18°C values follow

| MOLECULE | TARGET | READING |
| --- | --- | --- |
| CN(C)CCCC1(c2ccc(F)cc2)OCc2c(I)cccc21 (centres unmarked) | hSERT WT (Homo sapiens) | 33.2 ± 5.8 min |
| CN(C)CCCC1(c2ccc(F)cc2)OCc2cc(CN3CCN(c4ccccc4)CC3)ccc21 (centres unmarked) | hSERT WT (Homo sapiens) | 16.4 ± 0.3 min |
| CN(CCCC1(c2ccc(F)cc2)OCc2cc(C#N)ccc21)Cc1ccc2ccccc2c1 (centres unmarked) | hSERT WT (Homo sapiens) | 60.1 ± 1.0 min |
| CN(C)CCCC1(c2ccc(F)cc2)OCc2cc(/C=C/Cc3ccccc3)ccc21 (centres unmarked) | hSERT WT (Homo sapiens) | 23.1 ± 2.9 min |
| CN(CCCC1(c2ccc(F)cc2)OCc2cc(C#N)ccc21)Cc1ccc(N(C)C)cc1 (centres unmarked) | hSERT WT (Homo sapiens) | 41.2 ± 2.8 min |
| CN(CCCC1(c2ccc(F)cc2)OCc2cc(C#N)ccc21)C1CC=C(c2c[nH]c3ccccc23)CC1 (centres unmarked) | hSERT WT (Homo sapiens) | 52.0 ± 7.6 min |

Hi there! I need [3H] S-1 dissoc. t½ (min) at 18°C for each item below, if you can.
1. CN(C)CCCC1(c2ccc(F)cc2)OCc2cc(CNCc3ccc4ccccc4c3)ccc21 (centres unmarked)
2. CN(C)CCCC1(c2ccc(F)cc2)OCc2cc(CNCc3ccc4c(c3)Cc3ccccc3-4)ccc21 (centres unmarked)

output:
22.1 ± 1.5 min
11.4 ± 0.2 min

----------
- TARGET: hSERT WT (Homo sapiens, UniProt P31645)
- Sequence (P31645 whole entry): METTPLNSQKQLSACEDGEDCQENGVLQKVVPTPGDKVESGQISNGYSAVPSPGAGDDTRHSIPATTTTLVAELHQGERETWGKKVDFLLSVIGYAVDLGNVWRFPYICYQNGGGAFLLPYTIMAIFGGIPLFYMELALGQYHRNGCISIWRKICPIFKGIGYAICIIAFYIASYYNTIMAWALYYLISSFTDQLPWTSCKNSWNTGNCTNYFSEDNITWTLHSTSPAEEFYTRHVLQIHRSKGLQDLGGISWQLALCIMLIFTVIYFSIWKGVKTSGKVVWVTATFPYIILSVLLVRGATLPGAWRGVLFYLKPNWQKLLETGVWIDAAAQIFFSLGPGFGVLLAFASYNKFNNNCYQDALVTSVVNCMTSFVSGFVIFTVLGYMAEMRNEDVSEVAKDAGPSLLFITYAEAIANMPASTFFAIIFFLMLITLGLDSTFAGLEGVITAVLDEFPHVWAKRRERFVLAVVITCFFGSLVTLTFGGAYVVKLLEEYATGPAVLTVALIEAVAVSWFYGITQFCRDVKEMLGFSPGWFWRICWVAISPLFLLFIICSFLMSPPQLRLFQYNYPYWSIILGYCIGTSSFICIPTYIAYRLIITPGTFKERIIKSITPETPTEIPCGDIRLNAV
- STUDY_CONDITIONS: 30 µM compound; 18°C; COS-7 membranes, hSERT WT
# binning rule on [3H] S-1 dissoc. t½ (min) at 18°C: lower range: < 20 min; middle range: ≥ 20 min and < 30 min; upper range: ≥ 30 min

| COMPOUND | LABEL |
| --- | --- |
| CN(C)CCCC1(c2ccc(F)cc2)OCc2cc(CN)ccc21 (stereo not shown) | lower range |
| CN(C)CCCC1(c2ccc(F)cc2)OCc2cc(-c3cccc(N)c3)ccc21 (stereo not shown) | upper range |
| CN(C)CCCC1(c2ccc(F)cc2)OCc2cc(CNCc3ccc4c(c3)COC4(CCCN(C)C)c3ccc(F)cc3)ccc21 (stereo not shown) | middle range |
| CN(C)CCCC1(c2ccc(F)cc2)OCc2cc(CN3CCN(c4cccc(Cl)c4Cl)CC3)ccc21 (stereo not shown) | middle range |
| CN(CCCC1(c2ccc(F)cc2)OCc2cc(C#N)ccc21)Cc1csc2ccccc12 (stereo not shown) | upper range |
| CN(C)CCCC(O)(c1ccc(Br)cc1)c1ccc(C#N)cc1CO (stereo not shown) | middle range |
| CN(C)CCCC1(c2ccc(F)cc2)OCc2cc(I)ccc21 (stereo not shown) | upper range |
| COc1ccccc1N1CCN(Cc2ccc3c(c2)COC3(CCCN(C)C)c2ccc(F)cc2)CC1 (stereo not shown) | lower range |

input: Exam item: assign CN(CCCC1(c2ccc(F)cc2)OCc2cc(C#N)ccc21)Cc1ccnc2ccccc12 (stereo not shown) to the correct category.
output: middle range

input: CN(C)CCCC1(c2ccc(F)cc2)OCc2cc(/C=C/c3ccccc3)ccc21 (single isomer, unassigned; (-)) [(−)62] ?
output: upper range

----------
- TARGET: NET (Rattus norvegicus)
- Sequence (Q9WTR4 1-597): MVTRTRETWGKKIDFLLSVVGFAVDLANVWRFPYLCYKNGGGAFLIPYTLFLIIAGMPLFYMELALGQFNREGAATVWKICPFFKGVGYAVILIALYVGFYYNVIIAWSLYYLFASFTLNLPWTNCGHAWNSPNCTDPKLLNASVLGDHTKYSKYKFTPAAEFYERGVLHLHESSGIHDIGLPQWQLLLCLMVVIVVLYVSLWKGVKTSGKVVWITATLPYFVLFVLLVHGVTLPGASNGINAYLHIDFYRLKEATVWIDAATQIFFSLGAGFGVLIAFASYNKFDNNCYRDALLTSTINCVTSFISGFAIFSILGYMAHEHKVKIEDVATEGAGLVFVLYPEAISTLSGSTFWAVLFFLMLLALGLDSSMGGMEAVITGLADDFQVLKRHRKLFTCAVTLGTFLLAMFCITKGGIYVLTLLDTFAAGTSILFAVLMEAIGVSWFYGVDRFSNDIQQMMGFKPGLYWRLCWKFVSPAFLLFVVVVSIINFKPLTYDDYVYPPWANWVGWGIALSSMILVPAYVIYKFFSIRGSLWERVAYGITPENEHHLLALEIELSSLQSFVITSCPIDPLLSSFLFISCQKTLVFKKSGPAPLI
READOUT: Ki (µM)
Numbers only, in µM.

| MOLECULE | Ki / µM |
| --- | --- |
| CNCCCC1(c2ccc(F)cc2)OCc2cc(C#N)ccc21 (centres unmarked) | 0.88 |

input: May I ask what Ki has been recorded for CN(C)CCCC1(c2ccc(F)cc2)OCc2cc(Br)ccc21 (centres unmarked) ?
output: 28.4
